Reported Compound+sAβ λem (λmax of emission) values follow for various compounds
STUDY_TARGET: soluble Aβ42 aggregates (sAβ) (Homo sapiens, UniProt P05067)
Construct: commercial Aβ42 peptide (AnaSpec or GL Biochem); purchased AnaSpec or GL Biochem
Sequence (P05067 672-713 limits assumed): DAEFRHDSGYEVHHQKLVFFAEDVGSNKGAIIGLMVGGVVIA
EXPERIMENT: Fluorescence spectra of compounds with soluble Aβ42 aggregates
Format: binding
SETTINGS: excitation 380 nm; compound 5.0 µM in PBS with soluble Aβ aggregates
Description: All fluorescence measurements were performed using a SpectraMax M2e plate reader (Molecular Devices, San Jose, CA, USA). The fluorescence spectra of the compounds’ solution (100 μL PBS, 5.0 µM) were recorded with excitation at 380 nm and an emission wavelength from 400 to 680 nm. To PBS solutions (100 μL) of the compounds (5.0 µM), various Aβ42 species were added, with final concentrations of 5.0 µM and 25.0 µM, and their fluorescence spectra (λmax of emission) were determined as described above. […]

Consider the following illustrative entries.
SMILES_REPRESENTATION	Compound+sAβ λem (λmax of emission)
CN1CCN(C)CCN(Cc2cc(/C=C/c3ccc(N(C)C)cc3)ccc2O)CC1	435 nm
CCN(CC)c1ccc(/C=C/c2ccc(O)c(CN3CCN(C)CCN(C)CC3)c2)cc1	430 nm
CNc1ccc(/C=C/c2cc(CN3CCN(C)CCN(C)CC3)c(O)c(OC)c2)cc1	440 nm
CCN(CC)c1ccc(/C=C/c2cc(CN3CCN(C)CCN(C)CC3)c(O)c(OC)c2)cc1	435 nm
COc1cc(/C=C/c2ccc(N3CCOCC3)cc2)cc(CN2CCN(C)CCN(C)CC2)c1O	455 nm

Attention now turns to another entry.
Supply measured Compound+sAβ λem (λmax of emission) of `CN1CCN(C)CCN(Cc2cc(/C=C/c3ccc(N4CCOCC4)cc3)ccc2O)CC1` in your reply. 435 nm
